In this section we review reported pIC50 values for a set of compounds.
- testTarget: human recombinant 15-PGDH (Homo sapiens, UniProt P15428)
- testDescription: Recombinant 15-PGDH enzymatic inhibition assay (PGDH-Lumi, NADH signal)
- testConditions: recombinant 15-PGDH; 15 min pre-incubation, 60 min reaction with PGE2 and NAD+, NADH signal
Quick note: pIC50 values are minus log10 of concentrations in mol/L.

Examples with answers:
{"compound": "CN1CCC(C(O)c2cc3ccc(-c4cnc5nn(C)cc5c4)nc3s2)CC1 (stereo not drawn)", "measurementKind": "pIC50", "endpointValue": 7.57}
{"compound": "Cn1cc2cc(-c3ccc4cc(C(C)(O)C(F)(F)F)sc4n3)cnc2n1 (stereo not drawn)", "measurementKind": "pIC50", "endpointValue": 6.65}

Here's the next entry for you.
Give its pIC50 value. Item: CO[C@H]1C[C@H]([C@H](O)c2cc3ccc(-c4cnc5nn(C)cc5c4)nc3s2)C1 (single isomer, unassigned) [Compound B88ST]
8.95

* * *

- testTarget: human recombinant 15-PGDH (Homo sapiens, UniProt P15428)
- testDescription: Recombinant 15-PGDH enzymatic inhibition assay (PGDH-Lumi, NADH signal)
- testConditions: recombinant 15-PGDH; 15 min pre-incubation, 60 min reaction with PGE2 and NAD+, NADH signal
measurementKind: pIC50
Bear in mind: pIC50 is minus log10 of a mol/L concentration; give just that figure.

Take a look at these entries with their results.
{"compound": "Cc1nc2cc(-c3ccc4cc([C@]5(O)C[C@@H](C(F)F)C5)sc4n3)cnc2[nH]1 [Compound C93C]", "endpointValue": 9.23}
{"compound": "Cn1nnc2cc(-c3ncc4cc([C@]5(O)C[C@@H](C(F)(F)F)C5)sc4n3)cnc21 [Compound C95C]", "endpointValue": 8.90}
{"compound": "Cn1cc2cc(-c3ccc4cc(C5(O)CCOCC5)sc4n3)cnc2n1 [Compound C22]", "endpointValue": 6.59}
{"compound": "Cn1cc2cc(-c3cnc4sc([C@H](O)C5CC(F)(F)C5)cc4n3)cnc2n1 [Compound B96R]", "endpointValue": 9.36}
{"compound": "Cn1cc2cc(-c3ccc4cc([C@]5(O)C[C@](C)(C#N)C5)sc4n3)cnc2n1 [Compound C63T]", "endpointValue": 9.42}

# ---- query compound ----
Entry CO[C@]1(C)C[C@](O)(c2cc3ccc(-c4cnc5nn(C)cc5c4)nc3s2)C1 (single isomer, unassigned) [Compound C59T] has what pIC50?
9.14

* * *

- testTarget: human recombinant 15-PGDH (Homo sapiens, UniProt P15428)
- testDescription: Recombinant 15-PGDH enzymatic inhibition assay (PGDH-Lumi, NADH signal)
- testConditions: recombinant 15-PGDH; 15 min pre-incubation, 60 min reaction with PGE2 and NAD+, NADH signal
With a cut-off of 1 nM, any IC50 strictly below it is called Satisfied; any IC50 meeting it or above is called Not satisfied.

Use the examples below as a reference point.
{"compound": "Cc1nc2cc(-c3ccc4cc(C5(O)CC(F)(F)C5)sc4n3)cnc2[nH]1", "cat": "Satisfied"}
{"compound": "Cn1nnc2cc(-c3ccc4cc([C@]5(O)C[C@](C)(C#N)C5)sc4n3)cnc21 (single isomer, unassigned) [Compound C104T]", "cat": "Satisfied"}

I'd appreciate it if you could check whether CO[C@@H]1CC[C@@]1(O)c1cc2ccc(-c3cnc4nn(C)cc4c3)nc2s1 (single isomer, unassigned) [Compound C70SR] has IC50 smaller than 1 nM.
Not satisfied

Is IC50 strictly under 1 nM for the entry CC(C)n1cc2cc(-c3ccc4cc([C@H](O)C5CC(F)(F)C5)sc4n3)ccc2n1 (single isomer, unassigned) [Compound B56R] ?
Satisfied

Say whether its IC50 is strictly beneath 1 nM. Entry: Cn1cc2cc(-c3ncc4cc(C5(O)CC6(CC6)C5)sc4n3)cnc2n1
Satisfied

I'd appreciate it if you could check whether CCCC(O)c1cc2ccc(-c3cnc4nn(C)cc4c3)cc2s1 (centres unmarked) has IC50 smaller than 1 nM.
Not satisfied

Identify whether the compound Cc1c([C@H](O)C2CCOCC2)sc2nc(-c3cnc4c(c3)nnn4C)ccc12 (single isomer, unassigned) [Compound B89R] records IC50 below 1 nM.
Not satisfied

Strictly below 1 nM in IC50? C[C@@H]1CC[C@@]1(O)c1cc2ccc(-c3cnc4nn(C)cc4c3)nc2s1 (single isomer, unassigned) [Compound C64SR]
Not satisfied

Lab note: IC50 threshold 1 nM. Does this compound come in strictly under it? Cn1cc2cc(-c3ccc4cc([C@@H](O)[C@@H]5CCOC5)sc4n3)cnc2n1 (single isomer, unassigned) [Compound B19SR]
Not satisfied

* * *

- testTarget: 15-PGDH in A549 cells (Homo sapiens, UniProt P15428)
- Construct: endogenous in cells; host or cells: A549
- Sequence (P15428 1-266): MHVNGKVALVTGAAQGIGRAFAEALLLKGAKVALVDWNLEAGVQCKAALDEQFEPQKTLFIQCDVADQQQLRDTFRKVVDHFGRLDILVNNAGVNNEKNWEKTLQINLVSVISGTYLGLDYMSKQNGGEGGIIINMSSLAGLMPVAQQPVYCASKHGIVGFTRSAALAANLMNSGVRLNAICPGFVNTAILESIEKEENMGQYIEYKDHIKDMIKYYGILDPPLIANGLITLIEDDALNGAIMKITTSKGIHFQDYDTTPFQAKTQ
- testDescription: A549 cellular 15-PGDH assay (PGE2 accumulation, HTRF)
- Format: cell-based
- testConditions: interleukin-stimulated, inhibitor 24 hrs, PGE2 by competitive HTRF, read-out: A549 Cell Assay IC50
Could you mark each record Yes if its IC50 falls strictly under 600 pM, and No if it equals or exceeds it?

I wonder whether CO[C@H]1C[C@@H]([C@H](O)c2cc3ccc(-c4cnc5nn(C)cc5c4)nc3s2)C1 (single isomer, unassigned) [Compound B88SC] has IC50 below 600 pM. Can you tell?
Yes

Below 600 pM on IC50? Entry CC(C)n1cc2cc(-c3ccc4cc([C@@H](O)C5CC(F)(F)C5)sc4n3)cnc2n1 (single isomer, unassigned) [Compound B64S]
Yes

hey, is IC50 for OC1(c2cc3ccc(-c4cnc5nccnc5c4)nc3s2)CC(F)(F)C1 [Compound C47] lower than 600 pM or not?
Yes

Hello, I'm reviewing records and need to know if IC50 of CC(C)n1cc2cc(-c3ccc4cc(C(O)C5CC(F)(F)C5)sc4n3)ccc2n1 (centres unmarked) [Compound B56] is below 600 pM. Could you check?
No

Input OC1(c2cc3ccc(-c4cncnc4)nc3s2)CC(F)(F)C1 [Compound C46] ; condition: IC50 strictly below 600 pM. Does it hold?
No

* * *

- testTarget: 15-PGDH in A549 cells (Homo sapiens)
- Construct: endogenous in cells
- testDescription: A549 cellular 15-PGDH assay (PGE2 accumulation, HTRF)
- testConditions: interleukin-stimulated, inhibitor 24 hrs, PGE2 by competitive HTRF, read-out: A549 Cell Assay IC50
pIC50: −log10 of the molar value.
Label yes (1) for high-side pIC50 (at or above 9) and no (0) for low-side pIC50 (below it).

Example entries begin here.
{"compound": "Cn1cc2cc(-c3ccc4nc([C@@H](O)C5CC(F)(F)C5)sc4n3)cnc2n1 (single isomer, unassigned) [Compound B72S]", "cat": "no (0)"}
{"compound": "Cn1cc2cc(-c3ccc4ccc(C5(O)CC(C)(C)C5)cc4n3)cnc2n1 [Compound D2]", "cat": "no (0)"}
{"compound": "Cn1cc2cc(-c3ccc4cc([C@@H](O)C5CC(F)(F)C5)sc4n3)cnc2n1 (single isomer, unassigned) [Compound B30S]", "cat": "yes (1)"}
{"compound": "CC(C)n1cc2cc(-c3ccc4cc([C@H](O)C5CC(F)(F)C5)sc4n3)ccc2n1 (single isomer, unassigned) [Compound B56R]", "cat": "no (0)"}
{"compound": "O[C@@H](c1cc2ccc(-c3ccc4[nH]ncc4c3)nc2s1)C1CCOCC1 (single isomer, unassigned) [Compound B37R]", "cat": "no (0)"}

Is the recorded value of pIC50 equal to or greater than 9 for this compound? Cc1nc2cc(-c3ccc4cc([C@@H](O)C5CC(F)(F)C5)sc4n3)ccc2o1 (single isomer, unassigned) [Compound B46S]
no (0)

Item Cn1cc2cc(-c3ccc4nc([C@]5(O)C[C@@H](C(F)F)C5)sc4n3)cnc2n1 [Compound C81C] with pIC50 of 9 or above?
no (0)

Hi, just wondering whether Cn1nnc2cc(-c3ccc4nc([C@]5(O)C[C@@H](C(F)F)C5)sc4n3)cnc21 [Compound C82C] shows pIC50 of 9 or higher.
no (0)

Would you say Cn1ncc2cc(-c3ccc4cc([C@H](O)C5CCOCC5)sc4n3)ccc21 (single isomer, unassigned) [Compound B34R] shows pIC50 at minimum 9?
no (0)

Is pIC50 at least 9? Consider Cn1cc2cc(-c3ccc4cc([C@]5(O)C[C@@H](C(F)F)C5)sc4n3)cnc2n1 [Compound C30C]
yes (1)

API: above_or_equal(metric=pIC50, cutoff=9) for item Cn1cc2cc(-c3ccc4sc([C@H](O)C5CC(F)(F)C5)cc4n3)cnc2n1 (single isomer, unassigned) [Compound B73R]
yes (1)

Decide: is the reported value of pIC50 for Cc1c([C@H](O)C2CCOCC2)sc2nc(-c3cnc4c(c3)nnn4C)ccc12 (single isomer, unassigned) [Compound B89R] equal to or greater than 9?
no (0)

Answer whether pIC50 of Cn1cc2cc(-c3ccc4cc([C@H](O)C5CCC(F)(F)CC5)sc4n3)cnc2n1 (single isomer, unassigned) [Compound B31R] is greater than or equal to 9.
yes (1)

Determine whether this compound has pIC50 no lower than 9: Cn1nnc2cc(-c3ncc4cc([C@]5(O)C[C@@](C)(C#N)C5)sc4n3)cnc21 (single isomer, unassigned) [Compound C98C]
no (0)

Please tell me: is the compound Cn1cc2cc(-c3ccc4cc(C5(O)CC6(CC6)C5)sc4n3)cnc2n1 at or over 9 in terms of pIC50?
yes (1)

Hello, I need to know if CCn1cc2cc(-c3ccc4cc([C@@H](O)C5CC(F)(F)C5)sc4n3)cnc2n1 (single isomer, unassigned) [Compound B53S] has measured pIC50 not below 9. Thanks!
yes (1)

In plain terms: is recorded pIC50 at least 9 for Cn1cc2cc(-c3ccc4cc(C5(O)CC6(CC(F)(F)C6)C5)sc4n3)cnc2n1 ?
yes (1)

State whether the measured pIC50 reaches 9, counting equality as reaching it, for COC[C@H]1C[C@](O)(c2cc3cnc(-c4cnc5nn(C)cc5c4)nc3s2)C1 [Compound C119C]
no (0)
